Tested on: MS2 coat protein
Assay: apparent KD of MS2 coat protein; designed switch direction (-1 OFF switch, 1 ON switch): -1; higher = weaker reporter binding
Settings: Eterna round: R98; input ligand: FMN 200 uM

[
  {
    "Residue sequence": "AUGACAGGCAGAGCGCAACGGCGAACAUGAGGAUCACCCAUGUAGGAUAUGCUACACAAAGUGUAGCAGAAGGACAUGCGACGC [Ex NG2 #85]",
    "Display unit": "nM",
    "apparent KD of MS2 coat protein": 117
  },
  {
    "Residue sequence": "AUGCCGUGCAGAGCGCGACGGCGAACAUGAGGAUCACCCAUGUAGGAUAUACUACACAAAGUGUAGUAGAAGGACGUGCAACAA [Ex NG2 #97]",
    "Display unit": "nM",
    "apparent KD of MS2 coat protein": 38.1
  },
  {
    "Residue sequence": "GUAUGACAAAGUCAUACCGCUUUGACAUGAGGAUCACCCAUGUAGGAUAUAUUAAUCAAAGAUUAAUAGAAGGACAUGUUUCUG [Ex NG2 #68]",
    "Display unit": "nM",
    "apparent KD of MS2 coat protein": 175
  },
  {
    "Residue sequence": "GGUUGUUACGCAGGAUAUUGCCAACAGGCAGUAGGAUAUCCGAAAGGAGAAGGAUUGCCAACAGGCGAGAAGGGCGGGUUAACC [pwkr exNG2 2xF7 2FMN.10.6]",
    "Display unit": "nM",
    "apparent KD of MS2 coat protein": 50.6
  },
  {
    "Residue sequence": "ACAUGGAAGCGAGGAUAUGCGGCGGAAACGAACGCAGAAGGCGAAAAAAAAACUCGCAAAAACAUGAGGAUCACCCAUGUAAAA [AK-NGROCr2-ExNG1-4]",
    "Display unit": "nM",
    "apparent KD of MS2 coat protein": 34.8
  }
]

Values from the supplement of paper PMC9170038
